# Particulars: in toluene, 298.15 K
Value Kind: solubility (mole fraction)
Enter a number only.

(Q) Supply reported solubility (mole fraction) belonging to this compound: `CCCSc1nc(N[C@@H]2C[C@H]2c2ccc(F)c(F)c2)c2nnn([C@@H]3C[C@H](OCCO)[C@@H](O)[C@H]3O)c2n1`
(A) 0.000102

====

# Particulars: in ethanol, 313.15 K
Value Kind: solubility (mole fraction)

(Q) Supply reported solubility (mole fraction) belonging to this molecule: `CCCSc1nc(N[C@@H]2C[C@H]2c2ccc(F)c(F)c2)c2nnn([C@@H]3C[C@H](OCCO)[C@@H](O)[C@H]3O)c2n1`
(A) 0.0149
